# target.system: Amine oxidase [flavin-containing] B (Homo sapiens)
# test.name: SSAO Activity Assay: Amine oxidase activity of recombinant hSSAO, hMAO-A, and hMAO-B isoforms are measured using the MAO-Glo assay kit (Promega, V1402). Ten nL test compounds (with DMSO as vehicle, 0.1% v/v for hSSAO, hMAO-A and hMAO-B) were added into assay plates by Echo, and pre-incubated with 5 μL of enzyme for 30 mins at room temperature before the addition of 5 μL of luminogenic substrate. The substrate concentration is 40 μM for human recombinant SSAO, 40 μM for human recombinant MAO-A, and 4 μM for human recombinant MAO-B. The hSSAO and hMAO-A assays were conducted in the MAO-A reaction buffer in the kit, and the MAO-B assay was conducted in the MAO-B reaction buffer. Oxidation of the substrate was conducted for 1 hr, before the addition of detecting reagent according the manufacture's protocol. The IC50 value of the tested compounds was calculated by fitting the dose response curve using a 4-parameter non-linear regression routine.
value.type: IC50

smiles.entry	IC50
NC/C(=C\F)COc1ccc(S(=O)(=O)CC2CCN(C(=O)C3CC3)CC2)c(Cl)c1	> 30 µM

Lab note: measured IC50 of CC(C)C(=O)Nc1ccc(CS(=O)(=O)c2ccc(OC/C(=C/F)CN)cc2)cc1 was < 10 µM

The compound NC/C(=C\F)COc1ccc(S(=O)(=O)CC23CCC(NC(=O)CC(F)(F)F)(CC2)CC3)cc1 showed IC50 equal to > 30 µM

// IC50 lookup, compound = COC1(CS(=O)(=O)c2ccc(OC/C(=C/F)CN)cc2)CCOCC1 , result: < 10 µM

Lab book: IC50 of NC/C(=C\F)COc1ccc(S(=O)(=O)CC2CCOCC2)c(F)c1 noted as < 10 µM

# IC50 of CC(C)(C)C(=O)N1CCC(CS(=O)(=O)c2ccc(OC/C(=C/F)CN)cc2)CC1 = > 30 µM

###

# reported IC50; entries follow
# target.system: Amine oxidase [flavin-containing] B (Homo sapiens, UniProt P27338)
# test.name: SSAO Activity Assay: Amine oxidase activity of recombinant hSSAO, hMAO-A, and hMAO-B isoforms are measured using the MAO-Glo assay kit (Promega, V1402). Ten nL test compounds (with DMSO as vehicle, 0.1% v/v for hSSAO, hMAO-A and hMAO-B) were added into assay plates by Echo, and pre-incubated with 5 μL of enzyme for 30 mins at room temperature before the addition of 5 μL of luminogenic substrate. The substrate concentration is 40 μM for human recombinant SSAO, 40 μM for human recombinant MAO-A, and 4 μM for human recombinant MAO-B. The hSSAO and hMAO-A assays were conducted in the MAO-A reaction buffer in the kit, and the MAO-B assay was conducted in the MAO-B reaction buffer. Oxidation of the substrate was conducted for 1 hr, before the addition of detecting reagent according the manufacture's protocol. The IC50 value of the tested compounds was calculated by fitting the dose response curve using a 4-parameter non-linear regression routine.

Solved cases below.
smiles.entry	IC50
NC/C(=C\F)COc1ccc(S(=O)(=O)CC2CCN(C(=O)c3ccc(F)cc3)CC2)cc1	< 10 µM
NC/C(=C\F)COc1ccc(S(=O)(=O)CC23CCC(C(=O)NC4CCC4)(CC2)C3)cc1	< 10 µM
N#CC12CCC(CS(=O)(=O)c3ccc(OC/C(=C/F)CN)cc3)(CC1)CC2	< 10 µM

Sample NC/C(=C\F)COc1ccc(S(=O)(=O)Cc2ccc(C(=O)N3CCCC3)cc2)cc1 ; IC50 observed: > 30 µM

Note to self: IC50 recorded for NC/C(=C\F)COc1ccc(S(=O)(=O)C[C@@H]2CCOC2)cc1 was < 10 µM

Please fill in: IC50 reported for C[C@H](CN1CCC2(CCCC2)C1=O)CS(=O)(=O)c1ccc(OC/C(=C/F)CN)cc1 = < 10 µM

###

# target.system: Amine oxidase [flavin-containing] B (Homo sapiens, UniProt P27338)
# Sequence (P27338 whole entry): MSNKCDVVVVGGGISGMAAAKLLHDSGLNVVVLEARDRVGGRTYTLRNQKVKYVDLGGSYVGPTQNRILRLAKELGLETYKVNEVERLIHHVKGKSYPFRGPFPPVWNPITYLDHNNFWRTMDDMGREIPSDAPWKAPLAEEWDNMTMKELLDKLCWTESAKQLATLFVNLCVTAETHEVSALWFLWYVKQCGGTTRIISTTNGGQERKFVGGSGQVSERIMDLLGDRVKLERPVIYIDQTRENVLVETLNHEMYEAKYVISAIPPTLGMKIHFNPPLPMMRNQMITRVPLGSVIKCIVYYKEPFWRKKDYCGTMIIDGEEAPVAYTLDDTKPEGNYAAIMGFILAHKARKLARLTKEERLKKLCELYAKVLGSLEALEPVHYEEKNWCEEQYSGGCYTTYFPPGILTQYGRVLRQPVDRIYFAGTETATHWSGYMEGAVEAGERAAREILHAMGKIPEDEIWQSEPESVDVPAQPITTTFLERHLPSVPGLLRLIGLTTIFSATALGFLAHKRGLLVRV
# test.name: SSAO Activity Assay: Amine oxidase activity of recombinant hSSAO, hMAO-A, and hMAO-B isoforms are measured using the MAO-Glo assay kit (Promega, V1402). Ten nL test compounds (with DMSO as vehicle, 0.1% v/v for hSSAO, hMAO-A and hMAO-B) were added into assay plates by Echo, and pre-incubated with 5 μL of enzyme for 30 mins at room temperature before the addition of 5 μL of luminogenic substrate. The substrate concentration is 40 μM for human recombinant SSAO, 40 μM for human recombinant MAO-A, and 4 μM for human recombinant MAO-B. The hSSAO and hMAO-A assays were conducted in the MAO-A reaction buffer in the kit, and the MAO-B assay was conducted in the MAO-B reaction buffer. Oxidation of the substrate was conducted for 1 hr, before the addition of detecting reagent according the manufacture's protocol. The IC50 value of the tested compounds was calculated by fitting the dose response curve using a 4-parameter non-linear regression routine.
pIC50: −log10 of the molar value.
# reported pIC50; entries follow

Solved cases below.
compound	target.system	pIC50
NC/C(=C\F)COc1ccc(S(=O)(=O)COCC2CCOCC2)cc1	Amine oxidase [flavin-containing] B (Homo sapiens, UniProt P27338)	4.52 to 5.00
NC/C(=C\F)COc1ccc(S(=O)(=O)C[C@@H]2CCCO2)cc1	Amine oxidase [flavin-containing] B (Homo sapiens, UniProt P27338)	> 5.00
NC/C(=C\F)COc1ccc(S(=O)(=O)COC2CCN(C(=O)C3CCCC3)CC2)cc1	Amine oxidase [flavin-containing] B (Homo sapiens, UniProt P27338)	< 4.52
NC/C(=C\F)COc1ccc(S(=O)(=O)CC2CCOCC2)cc1F	Amine oxidase [flavin-containing] B (Homo sapiens, UniProt P27338)	> 5.00

Now look at this entry.
So for CC(C)C(=O)N1CCC(CS(=O)(=O)c2ccc(OC/C(=C/F)CN)cc2)C1 (stereo not given) , the logged pIC50 turned out to be < 4.52

###

The following compounds are shown together with reported pIC50 values.
# target.system: Amine oxidase [flavin-containing] B (Homo sapiens)
# test.name: SSAO Activity Assay: Amine oxidase activity of recombinant hSSAO, hMAO-A, and hMAO-B isoforms are measured using the MAO-Glo assay kit (Promega, V1402). Ten nL test compounds (with DMSO as vehicle, 0.1% v/v for hSSAO, hMAO-A and hMAO-B) were added into assay plates by Echo, and pre-incubated with 5 μL of enzyme for 30 mins at room temperature before the addition of 5 μL of luminogenic substrate. The substrate concentration is 40 μM for human recombinant SSAO, 40 μM for human recombinant MAO-A, and 4 μM for human recombinant MAO-B. The hSSAO and hMAO-A assays were conducted in the MAO-A reaction buffer in the kit, and the MAO-B assay was conducted in the MAO-B reaction buffer. Oxidation of the substrate was conducted for 1 hr, before the addition of detecting reagent according the manufacture's protocol. The IC50 value of the tested compounds was calculated by fitting the dose response curve using a 4-parameter non-linear regression routine.
pIC50: −log10 of the molar value.

Please review the entries below; each comes with its answer.
compound	pIC50
CC1(CS(=O)(=O)c2ccc(OC/C(=C/F)CN)cc2)CCN(C(=O)C2(C)CC2)CC1	> 5.00
NC/C(=C\F)COc1ccc(S(=O)(=O)CN2CCCC2=O)cc1	< 4.52
CC(C)N1CCN(CS(=O)(=O)c2ccc(OC/C(=C/F)CN)cc2)C(=O)C1	< 4.52

Okay, now this compound:
pIC50 reported for this compound NC/C(=C\F)COc1ccc(S(=O)(=O)CC23CCC(N4CCCS4(=O)=O)(CC2)CC3)cc1 : < 4.52

###

Quick reference for pIC50 among some molecules
# target.system: Amine oxidase [flavin-containing] B (Homo sapiens, UniProt P27338)
# Sequence (P27338 whole entry): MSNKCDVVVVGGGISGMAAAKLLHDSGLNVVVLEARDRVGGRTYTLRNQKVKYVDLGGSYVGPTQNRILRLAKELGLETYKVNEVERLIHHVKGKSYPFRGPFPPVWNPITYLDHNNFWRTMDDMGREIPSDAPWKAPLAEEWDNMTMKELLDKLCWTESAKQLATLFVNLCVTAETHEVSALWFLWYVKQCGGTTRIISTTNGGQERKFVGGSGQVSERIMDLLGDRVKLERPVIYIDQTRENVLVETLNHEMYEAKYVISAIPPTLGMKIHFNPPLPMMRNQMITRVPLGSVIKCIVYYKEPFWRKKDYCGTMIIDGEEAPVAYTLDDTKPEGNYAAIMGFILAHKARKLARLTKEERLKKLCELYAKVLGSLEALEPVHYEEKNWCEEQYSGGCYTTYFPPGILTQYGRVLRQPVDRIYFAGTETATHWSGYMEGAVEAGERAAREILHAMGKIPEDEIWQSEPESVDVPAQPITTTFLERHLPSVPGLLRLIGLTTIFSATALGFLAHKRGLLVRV
# test.name: SSAO Activity Assay: Amine oxidase activity of recombinant hSSAO, hMAO-A, and hMAO-B isoforms are measured using the MAO-Glo assay kit (Promega, V1402). Ten nL test compounds (with DMSO as vehicle, 0.1% v/v for hSSAO, hMAO-A and hMAO-B) were added into assay plates by Echo, and pre-incubated with 5 μL of enzyme for 30 mins at room temperature before the addition of 5 μL of luminogenic substrate. The substrate concentration is 40 μM for human recombinant SSAO, 40 μM for human recombinant MAO-A, and 4 μM for human recombinant MAO-B. The hSSAO and hMAO-A assays were conducted in the MAO-A reaction buffer in the kit, and the MAO-B assay was conducted in the MAO-B reaction buffer. Oxidation of the substrate was conducted for 1 hr, before the addition of detecting reagent according the manufacture's protocol. The IC50 value of the tested compounds was calculated by fitting the dose response curve using a 4-parameter non-linear regression routine.
pIC50: −log10 of the molar value.

Worked set:
molecule	experimental.value
C[C@H](CN1CCOCC1)CS(=O)(=O)c1ccc(OC/C(=C/F)CN)cc1	< 4.52
CC(C)N(C)C(=O)C(C)(C)CS(=O)(=O)c1ccc(OC/C(=C/F)CN)cc1	< 4.52

pIC50 of C[C@@H](CN1CCCC1=O)CS(=O)(=O)c1ccc(OC/C(=C/F)CN)cc1 , assay on Amine oxidase [flavin-containing] B (Homo sapiens, UniProt P27338), is < 4.52

The reported Amine oxidase [flavin-containing] B (Homo sapiens, UniProt P27338) pIC50 of CN(C(=O)C1CC1)C12CCC(CS(=O)(=O)c3ccc(OC/C(=C/F)CN)cc3)(CC1)CC2 is < 4.52

# value of pIC50, Amine oxidase [flavin-containing] B (Homo sapiens, UniProt P27338), item NC/C(=C\F)COc1ccc(S(=O)(=O)CC2CCCN(C(=O)C3CCCC3)C2)cc1 (stereo not given) = < 4.52
